Kindly supply the reported self-aminoacylation values for the records listed here.
# Tested on: biotinyl-Phe-oxazolone
# procedure-details: self-aminoacylation, catalytic enhancement (BFO) (fold over background); higher = more active; k-Seq, kA / k0A0; sequences stand for … in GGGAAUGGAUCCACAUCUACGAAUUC…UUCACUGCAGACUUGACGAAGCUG
Fewer inactive variants are shown than the library holds.
Give bare numbers.

residue-codes	system-name	self-aminoacylation
GCACACUUCACGCAAUCGGUC [Fam1B.1 aminoacylation ribozyme variant]	biotinyl-Phe-oxazolone	10.1

# per-item lookup of self-aminoacylation; items listed below
1. CCACUUCAAACAAUCGCUCUG [Fam1A.1 aminoacylation ribozyme variant]
2. AUGUUUGCUAAUAGUCGCAAC [Fam3.1 aminoacylation ribozyme variant]
3. AAGUUUGCUAAUAGUUGCAAC [Fam3.1 aminoacylation ribozyme variant]
4. AUUACCCUGGUCAUCGAUAGA [Fam2.1 aminoacylation ribozyme variant]
5. CUGCUUCAAGCAAUCGGUCUG [Fam1A.1 aminoacylation ribozyme variant]
6. CUACUGCAAACAUUCGGUCUG [Fam1A.1 aminoacylation ribozyme variant]
7. AUUCUCCUAGGUCAUCGGGUU [Fam2.2 aminoacylation ribozyme variant]

Result:
1: 3.32; 2: 1.82; 3: 0.862; 4: 0.5; 5: 132; 6: 9.39; 7: 14.8

# per-item lookup of self-aminoacylation; items listed below
1. AUUCACCGAGGUCAUCUGGUG [Fam2.2 aminoacylation ribozyme variant]
2. AUAGUUCAAACAAUCGGUCUG [Fam1A.1 aminoacylation ribozyme variant]
3. GCACACUUCAAGCAAACGGUC [Fam1B.1 aminoacylation ribozyme variant]
4. AAGUUUGCUAAAAGUCGCAAC [Fam3.1 aminoacylation ribozyme variant]
5. AUCCACCUAGGUCCUCGGGUG [Fam2.2 aminoacylation ribozyme variant]
6. AUUCACCGAGGUCAUCGCGUG [Fam2.2 aminoacylation ribozyme variant]
7. AUUACCCUGUUCGUCGAGUGA [Fam2.1 aminoacylation ribozyme variant]

Result:
34.6
4.05
2.05
0.796
31.1
117
0.834

---

# Test system: biotinyl-Trp-oxazolone
# procedure-details: self-aminoacylation, catalytic enhancement (BWO) (fold over background); higher = more active; k-Seq, kA / k0A0; sequences stand for … in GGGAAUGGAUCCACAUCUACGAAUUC…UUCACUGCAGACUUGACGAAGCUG
Fewer inactive variants are shown than the library holds.
attribute-measured: self-aminoacylation
One number for each entry.

Guide cases for self-aminoacylation, answers given:
residue-codes	system-name	self-aminoacylation
AUUCACCUAAGUCAGCGGGUG [Fam2.2 aminoacylation ribozyme variant]	biotinyl-Trp-oxazolone	2.8
AAAUUUGCUUAUAGUCGCAAG [Fam3.1 aminoacylation ribozyme variant]	biotinyl-Trp-oxazolone	2.14
ACGUUUGCUAAUAGUCGCAAC [Fam3.1 aminoacylation ribozyme variant]	biotinyl-Trp-oxazolone	0.859
GUUACCCUAGUCAUCGAGUGA [Fam2.1 aminoacylation ribozyme variant]	biotinyl-Trp-oxazolone	7.77
AAUACCCUGGUCAUCCAGUGA [Fam2.1 aminoacylation ribozyme variant]	biotinyl-Trp-oxazolone	5.84

# per-item lookup of self-aminoacylation; items listed below
1. AUUACCCUGGUCAUCCAAUGA [Fam2.1 aminoacylation ribozyme variant]
2. CUACAUUAAACAAUCGGUCUG [Fam1A.1 aminoacylation ribozyme variant]

Result:
[0.429, 0.75]

# per-item lookup of self-aminoacylation; items listed below
1. CUACUUCAAACAAACGUUCUG [Fam1A.1 aminoacylation ribozyme variant]
2. AUUCUCCUAGGUCAUCGGGUG [Fam2.2 aminoacylation ribozyme variant]
3. AUCACCCUGGUGAUCGAGUGA [Fam2.1 aminoacylation ribozyme variant]
4. CCACACUUCAAGAAAUCGGUC [Fam1B.1 aminoacylation ribozyme variant]

Result:
1. 0.591
2. 12.3
3. 8.41
4. 6.66

# per-item lookup of self-aminoacylation; items listed below
1. AAGUUUGCUAACAGUCGCCAG [Fam3.1 aminoacylation ribozyme variant]
2. CUACAUCAAACAAUCGCUCUG [Fam1A.1 aminoacylation ribozyme variant]

Result:
1. 2.07
2. 0.67

---

# System: biotinyl-Trp-oxazolone
# procedure-details: self-aminoacylation, catalytic enhancement (BWO) (fold over background); higher = more active; k-Seq, kA / k0A0; sequences stand for … in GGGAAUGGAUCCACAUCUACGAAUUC…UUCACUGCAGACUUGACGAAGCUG
Variants at the floor of the assay were thinned out.
Kindly supply the reported self-aminoacylation values for the records listed here.
Give bare numbers.

Guide cases for self-aminoacylation, answers given:
residue-codes	system-name	attribute-measured	recorded-measurement
AUUCACCUAGGUCUUAGGGUG [Fam2.2 aminoacylation ribozyme variant]	biotinyl-Trp-oxazolone	self-aminoacylation	4.24
AGGUUUGCUAGUAGUCGCAAG [Fam3.1 aminoacylation ribozyme variant]	biotinyl-Trp-oxazolone	self-aminoacylation	0.88
CCACAAUGCAAGCAAUCGGUC [Fam1B.1 aminoacylation ribozyme variant]	biotinyl-Trp-oxazolone	self-aminoacylation	0.93
CCACACGUCUAGCAAUCGGUC [Fam1B.1 aminoacylation ribozyme variant]	biotinyl-Trp-oxazolone	self-aminoacylation	0.768
CUUCACCGAGGUCAUCGGGUG [Fam2.2 aminoacylation ribozyme variant]	biotinyl-Trp-oxazolone	self-aminoacylation	5.44
AAUACCCUGGUAAUCGAGUGA [Fam2.1 aminoacylation ribozyme variant]	biotinyl-Trp-oxazolone	self-aminoacylation	10.3
AUUACCCUGGUAAUGGAGUGA [Fam2.1 aminoacylation ribozyme variant]	biotinyl-Trp-oxazolone	self-aminoacylation	9.08
AUUACCCUUGUCAUCAAGUGA [Fam2.1 aminoacylation ribozyme variant]	biotinyl-Trp-oxazolone	self-aminoacylation	6.3

# per-item lookup of self-aminoacylation; items listed below
1. AUUUCCGUGGUCAUCGAGUGA [Fam2.1 aminoacylation ribozyme variant]
2. CUACUUCAGACCAUCGGUCUG [Fam1A.1 aminoacylation ribozyme variant]
3. CCACACUUCAAUCAACCGGUC [Fam1B.1 aminoacylation ribozyme variant]
4. CUACUUCAAGCAAUCGGUCUG [Fam1A.1 aminoacylation ribozyme variant]

Result:
1. 8.19
2. 0.856
3. 1.22
4. 7.74

---

# Test system: biotinyl-Val-oxazolone
# procedure-details: self-aminoacylation, catalytic enhancement (BVO) (fold over background); higher = more active; k-Seq, kA / k0A0; sequences stand for … in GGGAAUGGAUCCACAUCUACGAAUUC…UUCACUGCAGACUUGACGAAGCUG
Fewer inactive variants are shown than the library holds.
Kindly supply the reported self-aminoacylation values for the records listed here.
Numbers only.

Guide cases for self-aminoacylation, answers given:
residue-codes	recorded-measurement
AUUACCCUGGUCACCGAGUGC [Fam2.1 aminoacylation ribozyme variant]	1.45
CCACACUUCAAGCGAUAGGUC [Fam1B.1 aminoacylation ribozyme variant]	0.642
CCACACUUCAAGCAAUCGCAC [Fam1B.1 aminoacylation ribozyme variant]	0.889

Query: Reported self-aminoacylation for CUACUGCAAACAAUCGGUCUC [Fam1A.1 aminoacylation ribozyme variant] : what is it?
Result: 0.885

---

# Tested on: biotinyl-Ile-oxazolone
# procedure-details: self-aminoacylation, catalytic enhancement (BIO) (fold over background); higher = more active; k-Seq, kA / k0A0; sequences stand for … in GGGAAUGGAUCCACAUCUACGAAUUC…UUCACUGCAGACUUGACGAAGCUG
Variants at the floor of the assay were thinned out.
Kindly supply the reported self-aminoacylation values for the records listed here.
Answers are plain numbers.

Guide cases for self-aminoacylation, answers given:
residue-codes	recorded-measurement
AAGUUUGCACAUAGUCGCAAG [Fam3.1 aminoacylation ribozyme variant]	0.804
AUUCACCUACGCCAUCGGGUG [Fam2.2 aminoacylation ribozyme variant]	2.1

# per-item lookup of self-aminoacylation; items listed below
1. AGGUUUACUAAUAGUCGCAAG [Fam3.1 aminoacylation ribozyme variant]
2. AUUAACCUGGUGAUCGAGUGA [Fam2.1 aminoacylation ribozyme variant]

Result:
1: 1.58; 2: 3.62

---

Kindly supply the reported self-aminoacylation values for the records listed here.
# Tested on: biotinyl-Phe-oxazolone
# procedure-details: self-aminoacylation, catalytic enhancement (BFO) (fold over background); higher = more active; k-Seq, kA / k0A0; sequences stand for … in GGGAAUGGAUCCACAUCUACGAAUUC…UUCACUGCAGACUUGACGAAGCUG
Fewer inactive variants are shown than the library holds.
Give bare numbers.

# per-item lookup of self-aminoacylation; items listed below
1. AUUCACCUAAGUCAGCGGGUG [Fam2.2 aminoacylation ribozyme variant]
2. AUCACCCUGGUCAUCGUGUGA [Fam2.1 aminoacylation ribozyme variant]

Result:
1: 25; 2: 34.7

# per-item lookup of self-aminoacylation; items listed below
1. CCACACAUCAAGCAAGCGGUC [Fam1B.1 aminoacylation ribozyme variant]
2. AGUCACCUAGGUCCUCGGGUG [Fam2.2 aminoacylation ribozyme variant]
3. AUUACCCUGGCCAUCGAAUGA [Fam2.1 aminoacylation ribozyme variant]
4. AUUCACCUACGUCAUCGGGCG [Fam2.2 aminoacylation ribozyme variant]

Result:
[0.546, 37.5, 1.84, 16.3]

# per-item lookup of self-aminoacylation; items listed below
1. CUACUUCAAACAAUAGGUCUA [Fam1A.1 aminoacylation ribozyme variant]
2. AUUACCCAGGUCGUCGAGUGA [Fam2.1 aminoacylation ribozyme variant]

Result:
[0.832, 0.686]
